# Test target: T1, purified human CD117 ectodomain (R&D Systems #332-SR) (human, UniProt P10721 26-524)
# T1 construct: extracellular domain; Bought protein; also called c-kit; purified recombinant human CD117 ectodomain
# T1 sequence (P10721 26-524): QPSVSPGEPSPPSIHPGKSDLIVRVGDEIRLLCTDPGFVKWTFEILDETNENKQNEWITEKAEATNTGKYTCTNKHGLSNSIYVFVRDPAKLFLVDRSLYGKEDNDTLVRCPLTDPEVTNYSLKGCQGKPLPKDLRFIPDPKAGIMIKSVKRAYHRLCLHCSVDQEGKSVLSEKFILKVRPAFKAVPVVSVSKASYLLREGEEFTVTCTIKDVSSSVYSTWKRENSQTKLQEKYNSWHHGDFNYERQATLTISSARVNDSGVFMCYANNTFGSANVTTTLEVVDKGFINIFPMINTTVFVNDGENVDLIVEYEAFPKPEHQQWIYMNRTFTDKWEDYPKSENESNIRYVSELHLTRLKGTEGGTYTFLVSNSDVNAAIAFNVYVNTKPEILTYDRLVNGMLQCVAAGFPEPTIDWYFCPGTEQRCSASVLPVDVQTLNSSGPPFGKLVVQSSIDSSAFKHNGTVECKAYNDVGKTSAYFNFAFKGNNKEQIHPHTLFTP
# Procedure details: BLI, purified IgG on sensor, soluble ectodomain; apparent monovalent
Kd values by entry
Quick note: unit goes after the number.

Worked examples follow.
>  <Binder>
HC-24/LC-24 (Ab24) (antibody, IgG1, V domains shown, From rat immunization/hybridoma; purified IgG in BLI; also called 024) VH: EVQLVESGGGLVQSGRSLKLSCAASGFTVSDYYMAWVRQAPTKGLEWVATINYDGSTTYHRDSVKGRFTISRDNAKSTLYLQMDSLRSEDTATYYCARHGDYGYHYGAYYFDYWGQGVMVTVSS VL: DIVLTQSPALAVSLGQRATISCRASQTVSLSGYNLIHWYQQRTGQQPKLLIYRASNLAPGIPARFSGSGSGTDFTLTISPVQSDDIATYYCQQSRESWTFGGGTNLEMK

>  <Kd>
0.986 nM

$$$$
>  <Binder>
HC-8/LC-8 (Ab8) (antibody, IgG1, V domains shown, Purified IgG; also called 008) VH: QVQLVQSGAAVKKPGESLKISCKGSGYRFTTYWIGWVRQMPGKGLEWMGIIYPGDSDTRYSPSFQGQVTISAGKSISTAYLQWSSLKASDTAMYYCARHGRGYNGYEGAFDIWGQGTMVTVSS VL: DIQMTQSPSSLSASVGDRVTITCRASQGISSALAWYQQKAGKAPKVLISDASSLESGVPSRFSGSGSGTDFTLSISSLQPEDFATYYCQQFNGYPLTFGGGTKVDIK

>  <Kd>
0.908 nM

$$$$

q: Item HC-16/LC-16 (Ab16) (antibody, IgG1, V domains shown, Purified IgG; also called 016) VH: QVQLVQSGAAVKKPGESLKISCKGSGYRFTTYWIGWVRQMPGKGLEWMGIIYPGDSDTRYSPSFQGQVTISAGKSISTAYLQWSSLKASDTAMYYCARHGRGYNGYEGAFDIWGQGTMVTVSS VL: AIQLTQSPSSLSASVGDRVTITCRASQGITSALAWYQEKPGKAPNLLIYDASSLESGVPSRFSGSGYGTDFTLTISSLQPEDFATYYCQQLNSYPLTFGGGTKVDIK : provide Kd
a: 2.93 nM
